The reported measurements were obtained from patent US10259810B2.

- target_or_test_system: ΔF508-CFTR (Homo sapiens, UniProt P13569, DEL508-508)
- Construct: host or cells: CFBE41o-, doxycycline-inducible
- Sequence (P13569 with tags, fused parts or gaps DEL508-508): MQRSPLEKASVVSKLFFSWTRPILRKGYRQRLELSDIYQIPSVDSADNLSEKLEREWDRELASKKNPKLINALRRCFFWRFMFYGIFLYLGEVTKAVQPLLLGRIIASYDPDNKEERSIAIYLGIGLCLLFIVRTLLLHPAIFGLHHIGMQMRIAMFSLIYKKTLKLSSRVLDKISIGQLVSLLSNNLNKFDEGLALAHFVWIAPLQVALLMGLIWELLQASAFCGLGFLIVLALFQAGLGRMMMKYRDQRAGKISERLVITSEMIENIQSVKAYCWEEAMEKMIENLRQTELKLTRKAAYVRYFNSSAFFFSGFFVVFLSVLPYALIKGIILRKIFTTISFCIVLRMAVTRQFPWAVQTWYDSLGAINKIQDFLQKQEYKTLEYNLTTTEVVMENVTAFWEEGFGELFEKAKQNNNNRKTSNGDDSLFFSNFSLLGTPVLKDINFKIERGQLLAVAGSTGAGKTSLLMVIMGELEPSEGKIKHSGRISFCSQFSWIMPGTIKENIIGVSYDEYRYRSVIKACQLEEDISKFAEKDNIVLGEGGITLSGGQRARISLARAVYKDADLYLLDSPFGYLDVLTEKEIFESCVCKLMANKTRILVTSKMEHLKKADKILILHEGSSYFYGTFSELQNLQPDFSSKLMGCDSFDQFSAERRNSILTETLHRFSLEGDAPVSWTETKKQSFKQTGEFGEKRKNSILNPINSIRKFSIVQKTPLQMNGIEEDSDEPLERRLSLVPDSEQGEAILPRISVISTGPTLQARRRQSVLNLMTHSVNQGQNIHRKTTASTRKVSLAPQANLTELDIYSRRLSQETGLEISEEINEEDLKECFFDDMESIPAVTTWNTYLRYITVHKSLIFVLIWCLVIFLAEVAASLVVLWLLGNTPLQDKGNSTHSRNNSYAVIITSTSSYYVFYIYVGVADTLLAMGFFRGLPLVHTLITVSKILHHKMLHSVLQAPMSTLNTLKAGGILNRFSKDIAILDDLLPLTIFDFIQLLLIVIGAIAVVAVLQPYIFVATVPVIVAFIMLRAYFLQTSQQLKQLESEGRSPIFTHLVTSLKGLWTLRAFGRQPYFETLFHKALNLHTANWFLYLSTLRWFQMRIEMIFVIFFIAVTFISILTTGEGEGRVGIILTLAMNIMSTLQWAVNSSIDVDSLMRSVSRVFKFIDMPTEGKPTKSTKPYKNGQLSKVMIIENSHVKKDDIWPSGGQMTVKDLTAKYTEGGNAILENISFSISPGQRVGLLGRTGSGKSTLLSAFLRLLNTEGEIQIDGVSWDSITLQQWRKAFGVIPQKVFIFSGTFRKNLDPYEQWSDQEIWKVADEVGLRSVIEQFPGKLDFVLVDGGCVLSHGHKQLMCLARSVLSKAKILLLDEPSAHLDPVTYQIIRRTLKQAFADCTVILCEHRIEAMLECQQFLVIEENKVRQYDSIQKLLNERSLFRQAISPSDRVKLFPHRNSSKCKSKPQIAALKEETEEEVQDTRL
- procedure_text: CFTR cell surface levels using HRP-tagged ΔF508-CFTR expressing CFBE cells, intrinsic corrector capacity
- Assay type: cell-based
- applied_conditions: HRP-tagged ΔF508-CFTR expressing CFBE41o- cells; compound alone (intrinsic corrector capacity); 20 hours at 33° C.; read-out: EC50
- Text: Measuring CFTR Cell Surface Levels Using HRP-Tagged ΔF508-CFTR Expressing CFBE Cells The HRP-tagged ΔF508-CFTR cell assay measures the expression of CFTR-ΔF508 at the plasma membrane. […] When HRP-tagged ΔF508-CFTR is present at the plasma membrane, the HRP enzyme activity can be measured. The amount of CFTR-ΔF508 that can be rescued to the plasma membrane is correlated with the amount of functional enzyme that can be measured. […]
List of EC50 values.
// return numeric value only (unit: nM, not printed)

CC(C)c1nn(C2CCCCC2)c2nc(C(=O)NS(C)(=O)=O)cc(-c3ccc(N4CCCC(F)C4)nc3)c12 (stereo not shown): 561
CN1CCN(c2ccc(-c3cc(C(=O)NS(=O)(=O)N(C)C)nc4c3c(C3CCC3)nn4C3CCCCC3)cn2)CC1: 763
CC(C)c1nn(-c2ccc(F)cc2)c2nc(C(=O)NS(C)(=O)=O)cc(OCCCN(C)C)c12: 3330
COC1CCN(S(=O)(=O)NC(=O)c2cc(N3CCC(N4CCOCC4)CC3)c3c(C4CCC4)nn(-c4ccc(F)cc4)c3n2)C1 (stereo not shown): 2070
COCCS(=O)(=O)NC(=O)c1cc(N2CCC(N3CCOCC3)CC2)c2c(C3CCC3)nn(-c3ccc(F)cc3)c2n1: 497
Cc1cccc(-n2nc(C(C)C)c3c(N4CCCCC4)cc(C(=O)NS(C)(=O)=O)nc32)c1: 839

Please turn your attention to the following entry.
response.value for CN(C)S(=O)(=O)NC(=O)c1cc(N2CCC(N3CCOCC3)CC2)c2c(C3CCC3)nn(-c3cccc(C(F)(F)F)c3)c2n1 (field: EC50) = 101
